Data origin: PubChem BioAssay (EPA / NIEHS)

# Test Description: BSK_3C_VCAM1: BioMAP Diversity Plus: 3C Assay for Vascular cell adhesion molecule 1 (VCAM1) Biomarker Activity (AID 2282999)
# Run Parameters: BioMAP 3C HUVEC, VCAM1 ELISA, cytokine-stimulated; actives raise or lower the signal
# Experimental: BSK_3C is a cell-based, multiplexed-readout assay that uses umbilical vein endothelium, a human vascular primary cell, with measurements taken at 24 hours after chemical dosing in a 96-well plate.BSK_3C_VCAM1 is an assay component measured in the BSK_3C assay. It measures VCAM-1 antibody related to regulation of gene expression using ELISA technology.Data from the assay component BSK_3C_VCAM1 was analyzed into 1 assay endpoint. […]
Calls of active or inactive are those of the source. The calls were made as follows: active = hit-call score of the fitted dose curve at least 0.9, where 1 is the maximum; inactive = score below 0.9.
Parameter call: string, one of active, inactive

**Q:** Entry CC1(C)C(C(=O)OC(C#N)c2cccc(Oc3ccccc3)c2)C1(C)C (stereo unspecified) : call = ?
**A:** inactive

**Q:** Entry Cc1nc(N(C)C)nc(OC(=O)N(C)C)c1C : call = ?
**A:** inactive

**Q:** Entry COC(=O)N(C(=O)N1CO[C@@]2(C(=O)OC)Cc3cc(Cl)ccc3C2=N1)c1ccc(OC(F)(F)F)cc1 : call = ?
**A:** inactive

**Q:** Entry COc1cc(OC)nc(NC(=O)NS(=O)(=O)c2ncccc2OCC(F)(F)F)n1 : call = ?
**A:** inactive

**Q:** Entry COC(=O)NC(=S)Nc1ccccc1NC(=S)NC(=O)OC : call = ?
**A:** inactive

**Q:** Entry CC1(C)CCC(=Cc2ccc(Cl)cc2)C1(O)Cn1cncn1 (stereo unspecified) : call = ?
**A:** inactive

**Q:** Entry CN/C(=N\[N+](=O)[O-])NCc1cnc(Cl)s1 : call = ?
**A:** inactive

**Q:** Entry CCOP(=S)(OCC)Oc1nc(Cl)n(C(C)C)n1 : call = ?
**A:** inactive

**Q:** Entry Nc1c(Cl)c(F)nc(OCC(=O)O)c1Cl : call = ?
**A:** inactive

**Q:** Entry OC(c1ccc(Cl)cc1)(c1ccc(Cl)cc1)C(Cl)(Cl)Cl : call = ?
**A:** active

**Q:** Entry COP(=O)(OC)O/C(C)=C/C(=O)N(C)C : call = ?
**A:** inactive
